Species: Homo sapiens
Test: Cytoprotective activity against diethyl maleate-induced oxidative stress in Parkinson's disease patient GM15010 cells assessed as cell viability at 0.5 uM preincubated for 15 hrs prior to diethyl maleate-challenge measured after 6 hrs by hemocytometer-based assay
Format: functional
The source made the active and inactive calls. The rule behind the calls is not given here.
Measured Parameter: Activity

>>> val("CCCCCCCCCCC1=C(C)C(=O)C(OC)=C(OC)C1=O")
"Active"
>>> val("CCCCCCCCCCc1nc(N(C)C)nc(C)c1O")
"Active"
>>> val("CCCCCCCCCCCCCCCCc1nc(N(C)C)nc(C)c1O")
"Active"

====

Would you mind telling me the reported residual activity of each entry?
Species: Bos taurus
Assay: Inhibition of NADH oxidase activity of bovine heart mitochondrial […] at 1 uM after 5 mins by spectrophotometric analysis relative to control; values are per cent of control
One number for each entry, in %.

>>> val("CCCCCCCCCCC1=C(C)C(=O)C(OC)=C(OC)C1=O [DECYLUBIQUINONE]")
93
>>> val("CCCCCCCCCCCCCCCCc1nc(N(C)C)nc(C)c1O")
96.2
>>> val("Cc1nc(N(C)C)nc(CCCCCCCCCCO)c1O")
50
>>> val("COC1=C(OC)C(=O)C(CCCCCCCCCCO)=C(C)C1=O [IDEBENONE]")
57.4

Prompt: Record request: residual activity value, item CCCCCCCCCCc1nc(N(C)C)nc(C)c1O
Response: 35.4

This collection of values is drawn from ChEMBL document CHEMBL2396633.
